Value source: patent US10189794B2

System: Huh7 cells
Protocol Summary: Cell proliferation, Huh7 (CellTiter Glo)
Format: cell-based
Setup Conditions: Homo sapiens, Huh-7; Huh7; 120 hr; read-out: Cell Proliferation GI50 (nM) HUH
Procedure: The growth inhibition (GI50) values were determined by Graph Pad Prism.
Measured GI50 by item

Consider the following illustrative entries.
>  <Compound>
C=CC(=O)Nc1ccccc1Nc1ncc2c(n1)N(CC(F)F)C(=O)N(c1c(Cl)c(OC)cc(OC)c1Cl)C2 [I-103]

>  <Target>
Huh7 cells

>  <Measured Attribute>
GI50

>  <Endpoint Result>
101 to 500 nM

$$$$
>  <Compound>
C=CC(=O)Nc1ccccc1Nc1ncc2c(n1)N(CC(F)F)C(=O)N(c1c(F)c(OC)cc(OC)c1F)C2 [I-116]

>  <Target>
Huh7 cells

>  <Measured Attribute>
GI50

>  <Endpoint Result>
101 to 500 nM

$$$$
>  <Compound>
C=CC(=O)NC1COCC1Nc1ncc2c(n1)N(Cc1cc[nH]n1)C(=O)N(c1c(Cl)c(OC)cc(OC)c1Cl)C2 (stereo not shown) [I-216]

>  <Target>
Huh7 cells

>  <Measured Attribute>
GI50

>  <Endpoint Result>
101 to 500 nM

$$$$
>  <Compound>
C=CC(=O)NC1CCCCC1Nc1ncc2c(n1)N(CCOC)C(=O)N(c1c(Cl)c(OC)cc(OC)c1Cl)C2 (racemic) [I-61]

>  <Target>
Huh7 cells

>  <Measured Attribute>
GI50

>  <Endpoint Result>
501 to 999 nM

$$$$

stdin: Can you share its GI50? I mean this compound: C=CC(=O)Nc1ccccc1Nc1ncc2c(n1)N(Cc1ccc(F)cc1)C(=O)N(c1c(Cl)c(OC)cc(OC)c1Cl)C2 [I-25]
stdout: 501 to 999 nM

stdin: And for C=CC(=O)Nc1ccccc1Nc1ncc2c(n1)N(CC(O)CO)C(=O)N(c1cc(OC)cc(OC)c1)C2 (stereo not shown) [I-33] ?
stdout: > 1000 nM

stdin: And for C=CC(=O)NC1COCC1Nc1ncc2c(n1)N(C)C(=O)N(c1c(F)c(OC)cc(OC)c1Cl)C2 (stereo not shown) [I-206] ?
stdout: < 100 nM

###

Target: pFGFR4 in MDA-MB-453 cells (Homo sapiens (Human), UniProt P22455, Y367C)
Sequence (P22455 22-802 Y367C): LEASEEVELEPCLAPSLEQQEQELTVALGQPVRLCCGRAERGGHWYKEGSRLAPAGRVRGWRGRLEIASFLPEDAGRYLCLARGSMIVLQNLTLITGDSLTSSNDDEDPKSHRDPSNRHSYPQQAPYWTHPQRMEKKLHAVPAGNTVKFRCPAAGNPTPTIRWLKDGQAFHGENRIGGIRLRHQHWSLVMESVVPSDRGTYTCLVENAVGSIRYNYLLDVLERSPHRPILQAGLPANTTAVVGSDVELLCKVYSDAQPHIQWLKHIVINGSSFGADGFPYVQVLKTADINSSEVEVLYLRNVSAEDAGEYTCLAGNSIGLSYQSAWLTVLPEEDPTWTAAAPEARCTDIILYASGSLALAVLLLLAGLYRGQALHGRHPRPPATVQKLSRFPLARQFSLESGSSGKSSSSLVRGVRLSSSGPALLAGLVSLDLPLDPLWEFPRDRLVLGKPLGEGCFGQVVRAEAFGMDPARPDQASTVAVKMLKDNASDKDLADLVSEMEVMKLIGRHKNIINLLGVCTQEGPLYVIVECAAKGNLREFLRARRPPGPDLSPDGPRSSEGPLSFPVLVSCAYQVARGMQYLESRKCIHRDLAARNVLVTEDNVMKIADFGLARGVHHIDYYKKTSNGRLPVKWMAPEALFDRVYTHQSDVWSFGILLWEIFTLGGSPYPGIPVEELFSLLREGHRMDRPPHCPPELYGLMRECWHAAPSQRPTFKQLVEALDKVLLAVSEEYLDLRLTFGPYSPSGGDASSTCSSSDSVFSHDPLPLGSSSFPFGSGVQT
Protocol Summary: FGFR4 signaling (phospho-FGFR4) in MDA-MB-453 cells
Assay type: cell-based
Setup Conditions: Method A immunoblotting (Western blotting), 1 hr treatment
Measured EC50 by item

>  <Substance Smiles>
C=CC(=O)NCc1ccccc1Nc1ncc2c(n1)N(Cc1cccc(NC(=O)CC)c1)C(=O)N(c1c(Cl)c(OC)cc(OC)c1Cl)C2

>  <EC50>
< 100 nM

$$$$
>  <Substance Smiles>
C=CC(=O)Nc1ccc(Nc2ncc3c(n2)N(Cc2cccc(NC(=O)CC)c2)C(=O)N(c2c(Cl)c(OC)cc(OC)c2Cl)C3)cc1

>  <EC50>
< 100 nM

$$$$

stdin: Can you share its EC50? I mean this compound: `C=CC(=O)Nc1cccc(Nc2ncc3c(n2)N(Cc2cccc(NC(=O)CC)c2)C(=O)N(c2c(Cl)c(OC)cc(OC)c2Cl)C3)c1`
stdout: < 100 nM

stdin: And for `CCC(=O)Nc1cccc(CN2C(=O)N(c3c(Cl)c(OC)cc(OC)c3Cl)Cc3cnc(Nc4ccccc4NC(=O)CC)nc32)c1` ?
stdout: 101 to 500 nM

stdin: And for `C=CC(=O)Nc1ccccc1Nc1ncc2c(n1)N(C)C(=O)N(c1c(Cl)c(OC)cc(OC)c1Cl)C2` ?
stdout: < 100 nM
